Provide the reported Human 4A:parental cell ratio of each item.
# Assay System: human MS4A4A (human, UniProt Q96JQ5 1-239)
# Assay Procedure: FACS, HEK293, supernatant
One number for each entry, in ratio.

anti-MS4A4A antibody 4A-9 (antibody, V domains shown, murine hybridoma antibody) VH: DVQLQESGPGLVKPSQSLSLTCSVTGYSITSGYYWNWIRQFPGNKLEWMGYISYDGNNKYNPSLKNRISITRDTSKNQFFLKLNSVTTEDTATYYCANRDYWGQGTTLTVSS VL: DVLMTQTPLSLPVSLGDQASISCRSSQNIVHSNGITYLEWFLQKPGQSPTLLIYKISNRFSGVPDRFSGSGSGTDFTLKISRVEAEDLGVYYCFQGSHVPYTFGGGTKLDIK	8.2

Next item in the queue.
# input Endpoint output: Human 4A:parental cell ratio of anti-MS4A4A antibody 4A-2 (antibody, V domains shown, murine hybridoma antibody) VH: QIQLVQSGPELKKPGETVKISCKASGYTFVDYEMNWVKQAPGKGLEWLGWINTYTGEPTYADDFQGRFAFSLVTSVSTAYLQINNLKHEDMATYLCTRNYYYGNGDVMDYWGQGTSVTVSS VL: QIVLTQSPAIMSASPGEKVTITCSASSSVSYIHWFQQKPGTSPKLWIYSTSNLASGVPARFSGSGSGTSYSLTISRMEAEDAATYYCQQRTGFPLTFGGGTQLEIK . Value?
# output 20.2
